- Tested on: HT-1080 cells
- test.description: Cell viability assays in HT-1080 cells, ferroptosis induced by IKE or RSL3 (Example 8)
- Assay type: cell-based
- applied.conditions: Homo sapiens, HT-1080, 48 h, ^c 0.2 μM RSL3, 48 hours, 1,000 cells/well
observable: IC50 (nM)
Answer in nM, number only, no unit symbol.

Look at this molecule and give its reported IC50. `COc1cnc(NC2CCCCC2)c(NC2CCCCC2)c1`
2.7

* * *

- test.description: PHB4082 IP PK Study (plasma, brain, liver, kidney)
- Assay type: in vivo, C57BL/6 mice
- applied.conditions: both sexes, C57BL/6, mouse, kidney, intraperitoneal; 20 mg/kg IP, at eight hours
observable: concentration at 8 h (nM)
Provide only the numeric value, understood in nM.

Please look up its concentration at 8 h: `Cc1noc(-c2ccc(NC3CCCCC3)c(NC3CCCCC3)c2)n1`
1800

* * *

- test.description: PHB4082 IP, IV Study (cyclodextrin/PEG/tween vehicle)
- Type: in vivo, C57BL/6 mice
- applied.conditions: both sexes, C57BL/6, mouse, plasma, 10 mg/kg; IV Administration, 2 hr; read-out: [PHB4082]plasma
observable: concentration at 2 h (nM)
Write the number in nM without appending the unit.

Give its concentration at 2 h value. Item: `Cc1noc(-c2ccc(NC3CCCCC3)c(NC3CCCCC3)c2)n1`
634

* * *

- Tested on: HT-1080 cells
- test.description: Cell viability assays in HT-1080 cells, ferroptosis induced by IKE or RSL3 (Example 8)
- Type: cell-based
- applied.conditions: Homo sapiens, HT-1080, 48 h, ^c 0.2 μM RSL3, 48 hours, 1,000 cells/well
observable: IC50 (nM)
# number only, unit nM dropped from output

compound: Cc1noc(-c2cnc(NC3CCCCC3)c(NC3CCCCC3)c2)n1 [TH-2-31]
IC50, nM: 4.8
--
compound: CCOC(=O)c1ccc(NC2CCCCC2)c(N)c1 [Fer-1, Ferrostatin-1, reference compound]
IC50, nM: 3.6
--
compound: Cc1noc(-c2cc(NC(C)C)cnc2NC2CCCCC2)n1 [TH-2-37-2]
IC50, nM: 3.8

Then there is this compound:
# value lookup — system HT-1080 cells, readout IC50, item Cc1noc(-c2cc(NC3CCCCC3)cnc2NC2CCCCC2)n1 [TH-2-37-1]
4.3
